B1: EHEE_rd4_0086 (parent)
chain: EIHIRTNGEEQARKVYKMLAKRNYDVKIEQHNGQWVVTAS

- Variants of: B1
- assay_comment: folding stability dG (cDNA display proteolysis); higher = more stable
- protocol_conditions: PBS, room temperature
Exercise: state measured folding stability dG for each of the variants provided.

Exercise: // folding stability dG lookup, key: Q34A
Solution: 1.77 kcal/mol

Exercise: // folding stability dG lookup, key: K17Y
Solution: 1.99 kcal/mol

Exercise: // folding stability dG lookup, key: I2Y
Solution: 1.65 kcal/mol

Exercise: // folding stability dG lookup, key: Q11W
Solution: 2.1 kcal/mol

Exercise: // folding stability dG lookup, key: Q30N
Solution: 2.01 kcal/mol

Exercise: // folding stability dG lookup, key: D25Y
Solution: 2.09 kcal/mol

Exercise: // folding stability dG lookup, key: N32Y
Solution: 1.38 kcal/mol

Exercise: // folding stability dG lookup, key: K21I
Solution: 1.82 kcal/mol

Exercise: // folding stability dG lookup, key: K17L
Solution: 2.08 kcal/mol

Exercise: // folding stability dG lookup, key: Q30S
Solution: 1.58 kcal/mol

Exercise: // folding stability dG lookup, key: N32Q
Solution: 1.65 kcal/mol

Exercise: // folding stability dG lookup, key: G33H
Solution: 1.49 kcal/mol

Exercise: // folding stability dG lookup, key: D25F
Solution: 2.14 kcal/mol

Exercise: // folding stability dG lookup, key: K17M
Solution: 2.15 kcal/mol

Exercise: // folding stability dG lookup, key: K27V
Solution: 1.45 kcal/mol

Exercise: // folding stability dG lookup, key: I4R
Solution: 0.105 kcal/mol

Exercise: // folding stability dG lookup, key: G33N
Solution: 1.24 kcal/mol

Exercise: // folding stability dG lookup, key: K27E
Solution: 0.722 kcal/mol

Exercise: // folding stability dG lookup, key: M18H
Solution: 1.54 kcal/mol

Exercise: // folding stability dG lookup, key: H31Y
Solution: 2.03 kcal/mol

Exercise: // folding stability dG lookup, key: I4P
Solution: -0.436 kcal/mol

Exercise: // folding stability dG lookup, key: R5K
Solution: 1.75 kcal/mol

Exercise: // folding stability dG lookup, key: M18Y
Solution: 2.37 kcal/mol

Exercise: // folding stability dG lookup, key: E29A
Solution: 1.8 kcal/mol

Exercise: // folding stability dG lookup, key: Y24H
Solution: 1.18 kcal/mol

Exercise: // folding stability dG lookup, key: V15S
Solution: -0.033 kcal/mol

Exercise: // folding stability dG lookup, key: N32K
Solution: 1.54 kcal/mol

Exercise: // folding stability dG lookup, key: A39H
Solution: 1.11 kcal/mol

Exercise: // folding stability dG lookup, key: Q30R
Solution: 1.81 kcal/mol

Exercise: // folding stability dG lookup, key: G8I
Solution: 2.21 kcal/mol

Exercise: // folding stability dG lookup, key: S40E
Solution: 1.02 kcal/mol

Exercise: // folding stability dG lookup, key: T38V
Solution: 2.25 kcal/mol

Exercise: // folding stability dG lookup, key: R22P
Solution: -0.563 kcal/mol

Exercise: // folding stability dG lookup, key: E9G
Solution: 0.745 kcal/mol

Exercise: // folding stability dG lookup, key: Q11L
Solution: 1.89 kcal/mol

Exercise: // folding stability dG lookup, key: T6G
Solution: 0.494 kcal/mol

Exercise: // folding stability dG lookup, key: L19Y
Solution: 1.35 kcal/mol

Exercise: // folding stability dG lookup, key: A12W
Solution: 0.477 kcal/mol

Exercise: // folding stability dG lookup, key: Q30E
Solution: 1.85 kcal/mol

Exercise: // folding stability dG lookup, key: N32M
Solution: 1.64 kcal/mol

Exercise: // folding stability dG lookup, key: N7F
Solution: 2.03 kcal/mol

Exercise: // folding stability dG lookup, key: Q11F
Solution: 2.05 kcal/mol

Exercise: // folding stability dG lookup, key: I4M
Solution: 0.855 kcal/mol

Exercise: // folding stability dG lookup, key: K17A
Solution: 2.25 kcal/mol

Exercise: // folding stability dG lookup, key: T38F
Solution: 1.72 kcal/mol

Exercise: // folding stability dG lookup, key: K21S
Solution: 2.09 kcal/mol
